System: CHO
Assay: Selectivity for human cloned kappa opioid receptor over human cloned delta opioid receptor expressed in CHO cells
Assay type: cell-based
The label criterion met is reserved for Ratio Ke strictly under 8; criterion not met covers values equal to or above it.

> print(dat)
                                smiles.code              label
1  COc1ccc2cc(C(=O)N[C@H](CN3CC[C@@](C)(c4cccc(O)c4)[C@@H](C)C3)C(C)C)cnc2c1  criterion not met
2  CC[C@H](C)[C@@H](CN1CC[C@@](C)(c2cccc(O)c2)[C@@H](C)C1)NC(=O)[C@H]1Cc2ccc(O)cc2CN1  criterion not met
3  CC(=O)Nc1ccc2c(c1)CN[C@@H](C(=O)N[C@H](CN1CC[C@@](C)(c3cccc(O)c3)[C@@H](C)C1)C(C)C)C2  criterion not met
4  COc1ccc2nc(C(=O)N[C@H](CN3CC[C@@](C)(c4cccc(O)c4)[C@@H](C)C3)C(C)C)[nH]c2c1      criterion met
5  CC(C)[C@@H](CN1CC[C@@](C)(c2cccc(O)c2)[C@@H](C)C1)NC(=O)c1cc2ccc(O)cc2[nH]1      criterion met
6  CC(C)[C@@H](CN1CC[C@@](C)(c2cccc(O)c2)[C@@H](C)C1)NC(=O)CN1CCc2ccc(O)cc2C1      criterion met

====

Biological target: Mu-type opioid receptor (Homo sapiens) (UniProt P35372)
Sequence (P35372 whole entry): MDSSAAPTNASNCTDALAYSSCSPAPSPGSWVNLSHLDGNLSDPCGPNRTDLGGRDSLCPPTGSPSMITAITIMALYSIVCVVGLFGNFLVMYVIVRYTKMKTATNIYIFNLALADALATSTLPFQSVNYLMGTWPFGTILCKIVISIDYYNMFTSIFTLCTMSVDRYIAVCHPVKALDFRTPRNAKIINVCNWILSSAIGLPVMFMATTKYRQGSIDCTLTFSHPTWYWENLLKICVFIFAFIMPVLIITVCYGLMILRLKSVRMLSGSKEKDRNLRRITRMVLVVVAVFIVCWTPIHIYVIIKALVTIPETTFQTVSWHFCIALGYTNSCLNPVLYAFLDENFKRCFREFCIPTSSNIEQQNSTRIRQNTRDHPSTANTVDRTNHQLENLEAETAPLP
Assay: Antagonist activity at human cloned mu opioid receptor expressed in CHO cells assessed as inhibition of DAMGO-stimulated [35S]GTPgammaS binding
Type: functional, cell-based
quantity: Ke (nM)

> print(dat)
                                smiles.code  reported.measurement
1  CC(C)[C@@H](CN1CC[C@@](C)(c2cccc(O)c2)[C@@H](C)C1)NC(=O)c1cc2ccc(O)cc2[nH]1                  23.8
2  CC(C)[C@@H](CN1CC[C@@](C)(c2cccc(O)c2)[C@@H](C)C1)NC(=O)c1c[nH]c2cc(O)ccc12                   4.8
3  CC(C)[C@@H](CN1CC[C@@](C)(c2cccc(O)c2)[C@@H](C)C1)NC(=O)[C@H]1Cc2ccc(N)cc2CN1                  12.6
4  COc1ccc2cc(C(=O)N[C@H](CN3CC[C@@](C)(c4cccc(O)c4)[C@@H](C)C3)C(C)C)cnc2c1                  19.5
5  COc1ccc2c(c1)CCN(CC(=O)N[C@H](CN1CC[C@@](C)(c3cccc(O)c3)[C@@H](C)C1)C(C)C)C2                  11.4
6  COc1ccc2c(c1)CN(CC(=O)N[C@H](CN1CC[C@@](C)(c3cccc(O)c3)[C@@H](C)C1)C(C)C)CC2                  17.7
